Test system: CEM cells HIV-1 protection, formazan growth assay
Assay: NCI AIDS Antiviral Assay
pEC50: −log10 of the molar value.
Item-by-item account of pEC50

compound="C=CCNC(=O)NNC(O)(C(=O)OCC)C(F)(F)F (stereo not given)" target="CEM cells HIV-1 protection, formazan growth assay" readout=pEC50 val="< 3.70"

Read the next record carefully.
# lookup: pEC50 of `O=c1n(N=S(=O)(c2ccccc2)c2ccccc2)c(=O)n2n1C1C=CC2CC1` < 3.70

* * *

Tested on: CEM cells HIV-1 protection, formazan growth assay
Assay: NCI AIDS Antiviral Assay
pEC50: −log10 of the molar value.
readout: pEC50

Example results:
compound="[N-]=[N+]=NC1CC(n2cc(COCC(F)(F)F)c(=O)[nH]c2=O)OC1CO (stereo not given)" val=5.24
compound=O=C(O)C(=Cc1ccc([N+](=O)[O-])cc1)C(=O)O val="< 2.98"
compound="c1ccc2c(c1)NC1CCN2C1 (stereo not given)" val="< 3.09"
compound=CC(=O)Nc1ccc(S(=O)(=O)N/N=C/C(=O)O)cc1 val="< 3.70"
compound=O=C(CCCN1CCC2(CC1)CC(=O)N(N1CCOCC1)C2=O)c1ccccc1 val="< 3.70"
compound="O=C(Nc1ccc(Cl)cc1)C(=O)C(C(=O)c1ccccc1-c1ccccc1)C1OC(=O)c2ccccc21 (stereo not given)" val="< 4.15"

So what's the measured pEC50 for this one? CC(C)C1=CC23CCC4C(C)(C(=O)O)CCCC4(C)C2CC1C1C(=O)N(c2cccc(N4C(=O)C5C6CC7C8(C)CCCC(C)(C(=O)O)C8CCC7(C=C6C(C)C)C5C4=O)c2)C(=O)C13 (stereo not given) < 3.57

Further, for `C=CCOC(=O)Cn1cc(C)c(=O)[nH]c1=O` ? < 3.70

Next entry: CCOC(=O)C1(C)CCCc2sc(N)c(C#N)c21 (stereo not given) < 3.70

Next: `NCCCCN(CCCN)/[N+]([O-])=N\O` < 2.12
